B1: ESRRA (parent)
chain: SLPLQDELAFAEDLVLDEEGARAA

Variants of: B1
Assay comment: protein stability index of a GFP-peptide fusion (GPS, HEK-293T) (PSI 1-6); higher = more stable;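 also: lentivirally expressed fusions sorted by FACS into six bins by GFP to DsRed ratio, PSI derived from sequencing read proportions per bin multiplied by bin number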
Condition description: c terminus: a fixed tail appended
Consider the reported protein stability index of an entry and match it to a band in bottom: < 3; middle: ≥ 3 and < 4; top: ≥ 4

>>> category_label("SLPLQDELAFAEDDVLDEEGARAA")
"top"
>>> category_label("SLPLQDELAFAEDLVIDEEGARAA")
"middle"
>>> category_label("SLPLQDELAFAEDLVLDEEGARVA")
"middle"
>>> category_label("SLPLQDELRFAEDLVLDEEGARAA")
"middle"
>>> category_label("SLPLQDEQAFAEDLVLDEEGARAA")
"top"
>>> category_label("SLPLQDELAFAEDLVLDEEGQRAA")
"bottom"
>>> category_label("SLPLQDELAFAEDIVLDEEGARAA")
"top"
>>> category_label("SLPLQRELAFAEDLVLDEEGARAA")
"bottom"
>>> category_label("SLPLQDELAFAEDLILDEEGARAA")
"middle"
>>> category_label("SLPLQDELAFAEDLVLDPEGARAA")
"bottom"
>>> category_label("SLPLQDELAFEEDLVLDEEGARAA")
"top"
>>> category_label("SLPLQDELAFAEDLSLDEEGARAA")
"top"
>>> category_label("SLPLQDELAFTEDLVLDEEGARAA")
"top"
>>> category_label("SLPLPDELAFAEDLVLDEEGARAA")
"top"
>>> category_label("SLPLQDELMFAEDLVLDEEGARAA")
"middle"
>>> category_label("SLPLQDELAFAEDYVLDEEGARAA")
"top"
>>> category_label("SLPLQDELAFAEILVLDEEGARAA")
"bottom"
>>> category_label("SLPLQDELTFAEDLVLDEEGARAA")
"bottom"
>>> category_label("SLPLQDELFFAEDLVLDEEGARAA")
"top"
>>> category_label("SLPLQVELAFAEDLVLDEEGARAA")
"bottom"
>>> category_label("SLPLQDELAFARDLVLDEEGARAA")
"top"
>>> category_label("SLPLKDELAFAEDLVLDEEGARAA")
"bottom"
>>> category_label("SLPLQDEIAFAEDLVLDEEGARAA")
"top"
>>> category_label("SLPLQDELAFAEDLVLHEEGARAA")
"middle"
>>> category_label("SLPTQDELAFAEDLVLDEEGARAA")
"top"
>>> category_label("SLPCQDELAFAEDLVLDEEGARAA")
"top"
>>> category_label("SLPLQDELAFAEDLVLDEEGDRAA")
"middle"
>>> category_label("SLPLQDELAFAEDLVLDEEEARAA")
"top"
>>> category_label("SLPLQDELAFAEDLVLPEEGARAA")
"top"
>>> category_label("SLPLQDYLAFAEDLVLDEEGARAA")
"middle"
>>> category_label("SLPLQDELAFALDLVLDEEGARAA")
"top"
>>> category_label("SLPLQDELSFAEDLVLDEEGARAA")
"middle"
>>> category_label("SVPLQDELAFAEDLVLDEEGARAA")
"middle"
>>> category_label("SLPLQDELAFAEDLVLDEECARAA")
"bottom"
>>> category_label("SLPLQIELAFAEDLVLDEEGARAA")
"bottom"
>>> category_label("SLPLQDELAFAEDLVLDEEGLRAA")
"middle"
>>> category_label("SLPLQDELAFAEDLVLYEEGARAA")
"bottom"
>>> category_label("SLPLQDELAFAEDLVLDETGARAA")
"bottom"
>>> category_label("SLPLQDELAFAEDLVLDEEGAHAA")
"middle"
>>> category_label("SLPLQDELAFAEDLVLDEFGARAA")
"bottom"
>>> category_label("SLPLQDELAFAEDLVLTEEGARAA")
"middle"
